Origin of values: PubChem BioAssay (NCI)

The entries below are paired with their reported TGI.
Test system: DU-145 prostate
Experiment: NCI tumour cell line growth inhibition, 48 h
assay-endpoint: TGI

compound="O=C1c2ccccc2NC(c2cc(Cl)cc(Cl)c2O)N1CCc1ccccn1 (stereo not given)" result="> 100 µM"
compound=COc1ccc(Cl)cc1Nc1nc(C(F)(F)F)ccc1C(=O)N/N=C/c1ccc([N+](=O)[O-])cc1 result="3.21 µM"
compound="O=c1[nH]c(=O)n(C2CC(O)C(CO)O2)cc1OCCc1ccccc1 (stereo not given)" result="> 100 µM"
compound="CC(N=C(N)N)C(=O)O (stereo not given)" result="> 100 µM"
compound=CC1=C(C(=O)N[C@@H](Cc2ccccc2)C(=O)O)N2C(=O)[C@@H](NC(=O)[C@@H](N)CC(C)C)[C@H]2SC1 result="> 100 µM"
compound=O=C1c2cccc3cccc(c23)C(=O)N1CCCNCCCCNCCCN1C(=O)c2cccc3cccc(c23)C1=O result="1.14 µM"
compound=NC(=O)c1cc(-c2ccc(-n3ccnc3)cc2)n[nH]c1=O result="> 100 µM"
compound="CCN(CC)c1ccc2c(c1)OC(=O)C(c1nnc(-c3ccc([N+](=O)[O-])cc3)o1)C2 (stereo not given)" result="> 100 µM"
compound=COc1cc(/C=N/Nc2ncnc3c2cnn3C(C)C)ccc1O result="> 25 µM"
compound=CCOC(=O)N1CCN(c2c(C)nc(C)[nH]c2=O)CC1 result="> 100 µM"

* * *

Tested on: IGROV1 ovarian
Assay: NCI tumour cell line growth inhibition, 48 h
assay-endpoint: TGI

compound=CC1=CC[C@@H]2C(C)(C)C(=O)CC[C@@]2(C)[C@@H]1COc1ccc2ccc(=O)oc2c1 result="55.1 µM"
compound="COc1ccc(NS(=O)c2ccc(-c3ccccc3)cc2)cc1 (stereo not given)" result="> 100 µM"
compound="O=C(c1ccccc1)C(c1ccccc1)C1(O)C(=O)Nc2ccccc21 (stereo not given)" result="> 100 µM"
compound=CC1=C(C)C(=O)C2=C(OCCCO2)C1=O result="33.3 µM"
compound="C=C1CC(Cn2ccc(=O)[nH]c2=O)(c2ccc(-c3ccccc3)cc2)OC1=O (stereo not given)" result="2.64 µM"
compound="CC(N=C(N)N)C(=O)O (stereo not given)" result="> 100 µM"
compound=O=C(Cc1nc2ccccc2c(=O)n1-c1c(Cl)cccc1Cl)c1ccncc1 result="49.7 µM"
compound=CO[C@H]1O[C@@H]2CO[C@@H](c3ccccc3)O[C@H]2[C@@H]2CC=CCC[C@]12O result="> 100 µM"
compound="C=CCC1C(=O)C(C(=O)OC)N2CCc3c([nH]c4ccccc34)C12 (stereo not given)" result="> 100 µM"
compound="CN1C(OCc2ccccc2)c2c(ccc3c2OCO3)C2C=Cc3cc4c(cc3C21)OCO4 (stereo not given)" result="2.09 µM"

* * *

Tested on: HOP-92 NSCLC
Assay: NCI tumour cell line growth inhibition, 48 h
The entries below are paired with their reported log10(TGI).
assay-endpoint: log10(TGI) (log10 of the value in µM)

compound=COc1cc(-c2nn(-c3ccc(NC(=O)Nc4ccc(Cl)c(Cl)c4)cc3)cc2-c2ccncc2)ccc1Cl result=1.08
compound=COc1ccc(C[n+]2c3ccccc3n3c4ccc(N)cc4ccc32)c(OC)c1OC result=0.58
compound=CCCCCCCC(=O)OC[n+]1ccc(-c2c(COC(=O)NC(C)C)c(COC(=O)NC(C)C)c3n2CCC3)cc1 result=1.92
compound=OC(CC(CC(O)(C(F)(F)Cl)C(F)(F)Cl)=NNc1ccccc1)(C(F)(F)Cl)C(F)(F)Cl result=0.72
compound="O=C(/C=C/C12c3ccccc3C(c3ccccc31)C1C(=O)N(c3ccccc3)C(=O)C12)c1ccc(Cl)cc1 (stereo unspecified)" result=0.51
compound=COc1ccc(C2=C(Cl)c3cc(OC)c(OC)cc3C2=O)cc1OC result=0.60
compound=O=C(/C=C/c1ccccc1)c1c[nH]c2ccccc2c1=O result=1.11
compound=CCCCCCCC(=O)OC[C@@H](C[As](=O)(O)O)OC(=O)CCCCCCC result=1.58
compound=O=C1c2cccc3cccc(c23)C(=O)N1CCCNCCCCNCCCN1C(=O)c2cccc3cccc(c23)C1=O result=0.20
compound="CC1(C)C(c2ccccc2)C12CCC1(C2=O)C(c2ccccc2)C1(C)C (stereo unspecified)" result=1.50
compound=CC[C@@]1(OC(=O)CN)C(=O)OCc2c1cc1n(c2=O)Cc2cc3cc4c(cc3nc2-1)OCO4 result=-0.39
compound="CC(=O)NC1=C(C)C(=O)c2c(nc3n2CCC3OC(=O)c2ccccc2)C1=N (stereo unspecified)" result=0.74
compound=CCN(CC)C(=O)CC1=C(C)/C(=C/c2[nH]c(-c3ccc[nH]3)cc2OC)N=C1C result=-0.01
compound=Cc1nc(Cl)c2sc(=S)n(-c3ccc(F)cc3)c2n1 result=1.52
compound=O=S(=O)(Nc1cc(Br)c(O)c2ccccc12)c1ccc(F)cc1 result=0.66
compound=COc1ccc(-c2nn(-c3ccc(NC(=O)c4ccc(Cl)c(C(F)(F)F)c4)cc3)cc2-c2ccncc2)cc1Cl result=1.33
compound=COc1cc(=O)oc(/C=C/C=O)c1C result=1.73
